# system-under-test: Guanylate Cyclase-C (Homo sapiens)
# Construct: host or cells: T84 cells
# Sequence (P25092 24-1073): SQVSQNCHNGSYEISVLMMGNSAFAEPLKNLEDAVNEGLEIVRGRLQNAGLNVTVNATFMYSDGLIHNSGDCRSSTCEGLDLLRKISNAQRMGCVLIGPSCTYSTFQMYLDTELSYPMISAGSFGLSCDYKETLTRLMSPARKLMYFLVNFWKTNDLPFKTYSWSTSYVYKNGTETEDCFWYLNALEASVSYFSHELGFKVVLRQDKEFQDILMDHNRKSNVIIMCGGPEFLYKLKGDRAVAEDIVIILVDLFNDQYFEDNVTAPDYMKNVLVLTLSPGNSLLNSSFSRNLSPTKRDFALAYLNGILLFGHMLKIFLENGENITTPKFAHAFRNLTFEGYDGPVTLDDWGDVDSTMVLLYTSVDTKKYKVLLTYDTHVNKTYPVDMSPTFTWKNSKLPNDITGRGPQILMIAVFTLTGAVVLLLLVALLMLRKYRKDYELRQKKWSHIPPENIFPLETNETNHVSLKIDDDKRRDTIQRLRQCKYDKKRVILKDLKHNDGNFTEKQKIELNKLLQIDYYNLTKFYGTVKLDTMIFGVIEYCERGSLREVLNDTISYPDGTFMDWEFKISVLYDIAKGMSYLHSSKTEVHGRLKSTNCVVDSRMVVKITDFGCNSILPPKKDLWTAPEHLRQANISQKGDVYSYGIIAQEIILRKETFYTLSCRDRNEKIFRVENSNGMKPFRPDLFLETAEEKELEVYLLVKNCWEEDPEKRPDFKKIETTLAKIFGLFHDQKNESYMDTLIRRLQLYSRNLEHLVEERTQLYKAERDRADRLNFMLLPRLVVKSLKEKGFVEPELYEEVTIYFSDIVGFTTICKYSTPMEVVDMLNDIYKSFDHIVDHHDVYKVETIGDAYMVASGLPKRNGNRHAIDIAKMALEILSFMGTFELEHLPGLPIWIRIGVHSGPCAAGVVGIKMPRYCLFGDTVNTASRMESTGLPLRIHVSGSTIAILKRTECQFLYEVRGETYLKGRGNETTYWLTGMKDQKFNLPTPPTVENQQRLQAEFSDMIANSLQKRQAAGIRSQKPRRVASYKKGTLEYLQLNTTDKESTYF
# test-summary: Stimulation of guanylate cyclase-C induced by the toxin STa in T84 cells (cGMP accumulation)
# Assay type: cell-based
# condition-set: T84, test compound 50 μM vs STa (1 μM) group; cGMP accumulation in T84 cells; read-out: % of inhibition (Compound x STa)
parameter-measured: inhibition at 50 µM

// known answers, use as guide
>  <compound>
Cn1c2c(c(=O)n(C)c1=O)C(c1csc(C(F)(F)F)c1)C1=C(N2)c2ccccc2C1=O (centres unmarked)

>  <inhibition at 50 µM>
~62%

$$$$
>  <compound>
Cn1c2c(c(=O)n(C)c1=O)C(c1cccc3c1OCO3)C1=C(N2)c2ccccc2C1=O (centres unmarked)

>  <inhibition at 50 µM>
~12%

$$$$

Now look at this one.
Need inhibition at 50 µM, item Cn1c2c(c(=O)n(C)c1=S)C(c1cc(F)cc(C(F)(F)F)c1)C1=C(N2)c2ccccc2C1=O (centres unmarked)
~64%
